- Tested on: Human mammary cancer cells T47D
- PROTOCOL DESCRIPTION: MTT test of killing tumor cells, T47D
- Assay type: cell-based
- RECORDED CONDITIONS: 4-6 days incubation
pIC50: −log10 of the molar value.
MEASURE NAME: pIC50

• CC#CC1(O)CCC2C3CCC4=CC(=O)CCC4=C3C(c3ccc(N(C)C4CCCCC4)cc3)CC21C (stereo not shown) [compound of formula (VI)] = 5.19
